# TARGET_UNDER_TEST: UniProt Q9P2H5
# Sequence (Q9P2H5 whole entry, the tested form may be a part): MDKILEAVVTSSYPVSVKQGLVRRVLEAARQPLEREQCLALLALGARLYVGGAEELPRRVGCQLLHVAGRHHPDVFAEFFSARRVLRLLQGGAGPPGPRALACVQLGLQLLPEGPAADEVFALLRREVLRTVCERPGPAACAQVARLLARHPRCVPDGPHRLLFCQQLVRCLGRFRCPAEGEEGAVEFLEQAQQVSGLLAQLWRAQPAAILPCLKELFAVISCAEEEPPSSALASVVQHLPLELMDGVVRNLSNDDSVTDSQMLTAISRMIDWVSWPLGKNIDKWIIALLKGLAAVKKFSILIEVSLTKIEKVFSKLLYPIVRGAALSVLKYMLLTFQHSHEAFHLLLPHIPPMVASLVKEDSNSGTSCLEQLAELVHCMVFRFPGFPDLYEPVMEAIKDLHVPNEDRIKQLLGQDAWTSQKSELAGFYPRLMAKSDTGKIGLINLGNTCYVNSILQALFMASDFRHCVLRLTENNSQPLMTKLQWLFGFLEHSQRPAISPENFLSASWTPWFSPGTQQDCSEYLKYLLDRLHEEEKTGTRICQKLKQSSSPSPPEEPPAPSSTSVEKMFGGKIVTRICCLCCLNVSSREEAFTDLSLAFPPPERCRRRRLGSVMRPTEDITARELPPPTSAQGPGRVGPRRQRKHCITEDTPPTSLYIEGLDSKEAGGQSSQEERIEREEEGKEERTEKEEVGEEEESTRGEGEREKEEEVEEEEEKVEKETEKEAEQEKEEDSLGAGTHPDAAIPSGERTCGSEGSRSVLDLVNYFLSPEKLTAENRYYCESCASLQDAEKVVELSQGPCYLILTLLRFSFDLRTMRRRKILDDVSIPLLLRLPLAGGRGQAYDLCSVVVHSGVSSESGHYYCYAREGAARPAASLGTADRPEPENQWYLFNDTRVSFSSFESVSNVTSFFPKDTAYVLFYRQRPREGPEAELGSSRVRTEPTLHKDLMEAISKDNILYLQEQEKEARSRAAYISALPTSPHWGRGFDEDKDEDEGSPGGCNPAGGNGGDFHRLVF
# ASSAY_PROCEDURE: log2 ratio of Biotin-Ahx-Ub-VS probe labelling (fragment/DMSO); higher = less target engagement (more negative = stronger competition), active = hit call of the paper (q ≤ 0.05, log2 ratio ≤ -1)
# APPLIED_CONDITIONS: compound concentration: 200 uM; treatment time: 3 h
Consider the reported log2 ratio of Biotin-Ahx-Ub-VS probe labelling of an entry and match it to a band in lo (below -0.3), med (-0.3 to below -0.1), hi (-0.1 or more)

Would you please look over these solved cases?
**Q:** For the record Cc1conc1C1CN(C(=O)CCl)C1 , report the class its log2 ratio of Biotin-Ahx-Ub-VS probe labelling corresponds to.
**A:** lo

**Q:** Category lookup for the molecule CC(NC(=O)CCl)c1cc2n(n1)CCCC2.Cl (centres undefined)
**A:** hi

New cases:
**Q:** Looking at Cl.O=C(CCl)N[C@H]1C[C@@H](n2cccn2)C1 , which class would you pick?
**A:** hi

**Q:** Exam item: assign Cl.O=C(CCl)NCc1cc2c(nc1O)CCCC2 to the correct category.
**A:** med

**Q:** Tag the class for Cl.O=C(CCl)N1CC(c2ccc(Br)cn2)C1
**A:** med

**Q:** Textbook exercise: identify the category of the molecule given here, Cl.Cn1c(CNC(=O)CCl)nc2cccnc21 , according to its measured value.
**A:** med

**Q:** Bin? O=C(O)C1Cc2ccccc2CN1C(=O)CCl (centres undefined)
**A:** lo

**Q:** Pick a category. Item: O=C(CCl)N1CCC[C@@H]1c1ccon1
**A:** med

###

# TARGET_UNDER_TEST: UniProt O00507
# Sequence (O00507 whole entry, the tested form may be a part): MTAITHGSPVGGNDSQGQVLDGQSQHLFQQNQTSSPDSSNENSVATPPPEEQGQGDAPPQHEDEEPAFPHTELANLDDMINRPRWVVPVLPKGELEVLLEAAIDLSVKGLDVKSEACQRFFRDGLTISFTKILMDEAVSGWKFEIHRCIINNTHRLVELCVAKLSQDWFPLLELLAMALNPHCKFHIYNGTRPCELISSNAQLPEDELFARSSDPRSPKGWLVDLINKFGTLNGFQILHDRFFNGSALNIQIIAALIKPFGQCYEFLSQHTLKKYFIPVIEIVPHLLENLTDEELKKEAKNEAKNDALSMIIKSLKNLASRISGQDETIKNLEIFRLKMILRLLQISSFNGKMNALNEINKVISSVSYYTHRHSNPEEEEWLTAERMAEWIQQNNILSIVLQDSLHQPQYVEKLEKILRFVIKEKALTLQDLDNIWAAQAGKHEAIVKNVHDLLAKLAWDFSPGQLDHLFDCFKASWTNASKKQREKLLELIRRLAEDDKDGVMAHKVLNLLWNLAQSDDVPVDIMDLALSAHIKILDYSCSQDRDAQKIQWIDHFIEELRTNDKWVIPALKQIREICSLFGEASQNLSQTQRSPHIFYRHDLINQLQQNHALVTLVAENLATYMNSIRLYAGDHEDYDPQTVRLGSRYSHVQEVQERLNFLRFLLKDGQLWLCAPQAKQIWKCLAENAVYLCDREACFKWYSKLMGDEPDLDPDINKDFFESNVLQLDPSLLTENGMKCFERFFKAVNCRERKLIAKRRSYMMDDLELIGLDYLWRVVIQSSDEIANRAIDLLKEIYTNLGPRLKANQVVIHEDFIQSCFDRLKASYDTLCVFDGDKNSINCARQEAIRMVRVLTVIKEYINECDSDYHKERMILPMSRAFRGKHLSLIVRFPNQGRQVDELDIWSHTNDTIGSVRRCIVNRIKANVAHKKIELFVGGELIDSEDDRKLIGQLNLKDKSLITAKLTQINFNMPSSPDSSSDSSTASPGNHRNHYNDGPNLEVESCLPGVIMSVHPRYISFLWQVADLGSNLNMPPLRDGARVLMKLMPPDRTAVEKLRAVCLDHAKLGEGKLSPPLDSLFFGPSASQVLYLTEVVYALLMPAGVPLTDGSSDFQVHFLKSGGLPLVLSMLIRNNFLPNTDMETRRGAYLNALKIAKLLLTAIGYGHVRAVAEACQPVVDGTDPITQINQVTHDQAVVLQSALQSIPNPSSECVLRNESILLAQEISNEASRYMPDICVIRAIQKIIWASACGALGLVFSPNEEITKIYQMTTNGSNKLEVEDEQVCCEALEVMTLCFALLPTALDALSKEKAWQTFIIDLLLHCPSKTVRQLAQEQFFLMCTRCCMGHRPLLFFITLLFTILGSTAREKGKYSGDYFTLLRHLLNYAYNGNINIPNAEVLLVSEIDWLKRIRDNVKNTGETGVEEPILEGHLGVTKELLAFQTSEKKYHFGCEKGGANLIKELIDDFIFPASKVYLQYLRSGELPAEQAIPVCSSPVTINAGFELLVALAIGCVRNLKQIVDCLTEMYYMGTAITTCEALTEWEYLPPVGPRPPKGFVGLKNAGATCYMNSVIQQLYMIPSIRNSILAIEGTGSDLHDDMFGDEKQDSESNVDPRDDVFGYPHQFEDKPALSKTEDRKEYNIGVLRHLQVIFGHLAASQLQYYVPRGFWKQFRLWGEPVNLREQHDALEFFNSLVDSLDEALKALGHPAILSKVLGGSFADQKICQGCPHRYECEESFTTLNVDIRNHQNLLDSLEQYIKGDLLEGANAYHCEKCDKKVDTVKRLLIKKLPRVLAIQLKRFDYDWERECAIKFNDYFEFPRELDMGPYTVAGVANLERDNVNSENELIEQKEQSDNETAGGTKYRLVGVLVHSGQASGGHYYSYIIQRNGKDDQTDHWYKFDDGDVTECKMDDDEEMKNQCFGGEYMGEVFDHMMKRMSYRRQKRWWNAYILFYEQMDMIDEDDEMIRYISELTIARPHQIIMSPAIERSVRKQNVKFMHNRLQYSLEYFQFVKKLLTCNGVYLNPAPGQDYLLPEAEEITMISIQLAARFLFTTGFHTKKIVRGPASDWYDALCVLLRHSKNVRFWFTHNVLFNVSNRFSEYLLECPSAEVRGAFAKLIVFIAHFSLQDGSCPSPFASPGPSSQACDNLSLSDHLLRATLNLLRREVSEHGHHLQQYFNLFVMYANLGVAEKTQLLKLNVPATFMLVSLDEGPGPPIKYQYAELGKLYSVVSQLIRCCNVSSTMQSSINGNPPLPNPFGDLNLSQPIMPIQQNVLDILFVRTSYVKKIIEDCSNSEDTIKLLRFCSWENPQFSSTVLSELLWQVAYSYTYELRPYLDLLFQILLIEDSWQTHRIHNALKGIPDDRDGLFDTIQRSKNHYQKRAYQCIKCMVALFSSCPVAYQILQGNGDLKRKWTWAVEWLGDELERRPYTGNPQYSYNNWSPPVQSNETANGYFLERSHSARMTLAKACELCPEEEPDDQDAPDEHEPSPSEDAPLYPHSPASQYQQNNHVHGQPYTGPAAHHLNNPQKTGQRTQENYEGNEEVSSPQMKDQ
# ASSAY_PROCEDURE: log2 ratio of Biotin-Ahx-Ub-VS probe labelling (fragment/DMSO); higher = less target engagement (more negative = stronger competition), active = hit call of the paper (q ≤ 0.05, log2 ratio ≤ -1)
# APPLIED_CONDITIONS: compound concentration: 200 uM; treatment time: 3 h
The molecules listed here are annotated with their log2 ratio of Biotin-Ahx-Ub-VS probe labelling.
Number, no unit, nothing else.

**Q:** // returns reported log2 ratio of Biotin-Ahx-Ub-VS probe labelling for input N#Cc1ccc(CNC(=O)CCl)cc1
**A:** -0.0509

Next:
**Q:** Fill in: log2 ratio of Biotin-Ahx-Ub-VS probe labelling of Cc1ccc(C)c(Oc2ccc(CNC(=O)CCl)cn2)c1.Cl is ___
**A:** -0.379

**Q:** Any idea what log2 ratio of Biotin-Ahx-Ub-VS probe labelling was measured for Cc1ncsc1CCNC(=O)CCl ?
**A:** 0.115

###

# TARGET_UNDER_TEST: UCHL5 (UniProt Q9Y5K5)
# Sequence (Q9Y5K5 whole entry, the tested form may be a part): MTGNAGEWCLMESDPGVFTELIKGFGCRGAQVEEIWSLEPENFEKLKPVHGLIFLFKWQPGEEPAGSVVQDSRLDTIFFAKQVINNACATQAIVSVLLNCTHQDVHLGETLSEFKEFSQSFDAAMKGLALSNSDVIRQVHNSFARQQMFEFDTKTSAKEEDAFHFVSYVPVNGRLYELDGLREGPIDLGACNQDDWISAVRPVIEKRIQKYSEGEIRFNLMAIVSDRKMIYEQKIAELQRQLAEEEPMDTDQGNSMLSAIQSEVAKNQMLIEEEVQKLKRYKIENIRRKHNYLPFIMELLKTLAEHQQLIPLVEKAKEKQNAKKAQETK
# ASSAY_PROCEDURE: log2 ratio of Biotin-Ahx-Ub-VS probe labelling (fragment/DMSO); higher = less target engagement (more negative = stronger competition), active = hit call of the paper (q ≤ 0.05, log2 ratio ≤ -1)
# APPLIED_CONDITIONS: compound concentration: 200 uM; treatment time: 3 h
REPORTED_PROPERTY: log2 ratio of Biotin-Ahx-Ub-VS probe labelling
The reply should be a number, written without any unit.

**Q:** Entry Cc1ccc2nnc(CNC(=O)CCl)n2c1 : reported log2 ratio of Biotin-Ahx-Ub-VS probe labelling = ?
**A:** -0.0479
